Test system: SN12C renal
experiment-notes: NCI-60 one-dose screen, 48 h
measurement-context: 10 µM unless noted
Compounds without any hit were thinned out: in the full panel of roughly 83,000, 20% have a hit. Calls of active or inactive are those of the source. Rule for the calls: active = growth percent below 10; inactive = the rest.
Labels: active, inactive

structure	category-label
O=C1/C(=C/c2ccc(Cl)cc2Cl)CN(S(=O)(=O)c2ccccc2)C/C1=C\c1ccc(Cl)cc1Cl	active
Nc1cccc(NC(=O)C(=O)Nc2cccc(N)c2)c1	inactive
CCCC(=O)Oc1ccc(/C(=C(/CC)Cc2ccccc2)c2ccc(OCCN3CCCC3)cc2)cc1	inactive
O=C1Nc2ccccc2/C1=C/C(=N/c1nnc(-c2ccccc2)s1)c1ccccc1	inactive
CCN(C(=O)CN1CCN(c2cc3c(cc2F)c(=O)c(C(=O)O)cn3C2CC2)CC1)c1nc(-c2ccc(OC)cc2)cs1	active
COc1cccc(-n2cc(-c3nc(Nc4cc(C)[nH]n4)c4ccccc4n3)nn2)c1	inactive
COc1c2ccccc2c(OC)c2[nH]c(=O)ccc12	inactive
Cc1cc(OCc2ccc(C(F)(F)F)cc2)c2c(c1)C(=O)C=C(NCCN1CCCC1)C2=O	inactive
CC[n+]1ccc2c(c1)C(=O)c1nccc3c1c-2nc1ccccc13	active

###

Test system: NCI-H522 lung
experiment-notes: NCI-60 one-dose screen, 48 h (100 = growth as untreated, 0 = no growth, -100 = all killed)
measurement-context: 10 µM unless noted
About 83,000 compounds went through this panel and 20% of them were active in at least one assay; those are over-represented in the sample as a whole.
We begin with a simple list: items and their reported growth.
measured-parameter: growth (%)

structure	study-system	recorded-result
C#Cc1nc(Nc2cc(C)[nH]n2)c2ccccc2n1	NCI-H522 lung	-72.7
COc1ccc2nc3cc(Cl)ccc3c(N3CCN(c4nccc(NCc5ccccc5)n4)CC3)c2c1	NCI-H522 lung	-0.14
COc1cnc2c(c1)C(=O)c1c-2n(CCCN2CCCC2)c(=O)c2cc([N+](=O)[O-])ccc12	NCI-H522 lung	-31
COc1ccc(/C=C2\N=C3SC=C(N)N3C2=O)cc1	NCI-H522 lung	-54.5
Cc1ccc2c(c1)C(=O)/C(=C/c1ccc(OCC(=O)c3ccccc3)cc1)O2	NCI-H522 lung	89.2
C(=N\Nc1nnn(Cc2ccccc2)n1)/c1ccccc1	NCI-H522 lung	29.2
C=C(CN1CCN(c2cccc(C(F)(F)F)n2)CC1)c1ccc(C(=O)Nc2ccccc2N)cc1	NCI-H522 lung	-45.3
O=C(CCCN1CCOCC1)Nc1ccc(Cn2nnc3c2C(=O)c2nnn(Cc4ccc(NC(=O)CCCN5CCOCC5)cc4)c2C3=O)cc1	NCI-H522 lung	-34.9
Cc1sc2nc3[nH]/c(=C\c4ccc(Cl)cc4)c(=O)n3c(=O)c2c1C	NCI-H522 lung	88.1
COc1ccc2nc(NC(=O)c3cccnc3Nc3cc(OC)c(OC)c(OC)c3)sc2c1	NCI-H522 lung	13.3
O=C1c2ccccc2-c2nccc3cc(Cl)nc1c23	NCI-H522 lung	-75.9
COc1ccc(/C=C/C(=O)c2ccc(NC(=O)c3cc4cc5ccccc5nc4s3)cc2)cc1OC	NCI-H522 lung	95.9
O=C1Nc2c(ccc(Cl)c2Cl)/C1=C/c1cc(Br)c(O)c(Br)c1	NCI-H522 lung	9.37
COc1ccc(-c2cn3c(ccc4ccccc43)n2)cc1	NCI-H522 lung	87.5
